# System: KM-20L2
# Assay Procedure: NCI tumour cell line growth inhibition, 48 h
Activity calls are given as the source filed them. No stated cut-off is given here; in the data, active = GI50 up to about 1.1 µM and inactive = higher.
Outcome field: choose from Y for active, N for inactive

Please let me know the test result on file for COc1cc2c(c(OC)c1OC)-c1ccc(SC)c(=O)cc1[C@@H](NCc1ccc(F)cc1)CC2 .
Y

Please let me know the test result on file for COC(=O)/C(C#N)=C1\CCC(O)N1 (stereo not drawn) .
N

Please let me know the test result on file for CCCCCCCCCCCCCCCCCCOP(=O)([O-])OCC[N+](C)(C)C [OCTADECYLPHOSPHONOCHOLINE] .
N

###

# Tested on: NCI-H522
# Assay Procedure: NCI tumour cell line growth inhibition, 48 h
Activity calls are given as the source filed them. No stated cut-off is given here; in the data, active = GI50 up to about 1.1 µM and inactive = higher.
Provide the recorded GI50 for the entries that follow.

For the compound CCc1c(-c2ccc(OC)cc2)c(=O)oc2cc(O)ccc12 , what GI50 is on record?
29.5 µM (inactive)

For the compound CC#COP(=O)(OCC)OCC , what GI50 is on record?
> 100 µM (inactive)

For the compound COc1cc2[nH]c(=O)c3cc(C)cc4c(Cl)nc(c1OC)c2c43 , what GI50 is on record?
36.3 µM (inactive)

For the compound O=C1CCSc2nc(-c3ccc4c(c3)OCO4)nn21 , what GI50 is on record?
> 10 µM (inactive)
